Each entry below carries its reported MUC2 mRNA/28S rRNA ratio, mean.
# Test system: MUC2 mRNA
# assay.text: MUC2 mRNA induction in intestinal epithelial cells (MUC2 mRNA/28S rRNA ratio)
# Format: cell-based, human
# condition.info: conditions favoring MUC2 expression, peptides at conditions optimized for MUC3 (50 μg/ml, 30 min), control = 100
measure.name: MUC2 mRNA/28S rRNA ratio, mean

>>> result("MWGTFLKEAG [N-terminal]")
101.167
>>> result("MWGLTKFEAG [Limited Scramble, Bovine MAA with TFLK motif scrambled]")
87.167
>>> result("SAADAAQRGPQQA [C-terminal, control 10 amino acid peptide in which the first 7 were from residues 62-69 of bovine SAA, reference compound]")
67.500
>>> result("GKFAWEGMTL [Total Scramble, control peptide, amino acids of the entire N-Terminal peptide arranged in random order, reference compound]")
65.833
